target: human serum albumin (HSA) (Homo sapiens); test: 1D 1H NMR line-broadening titration of ligand with HSA
Sequence (P02768 25-609): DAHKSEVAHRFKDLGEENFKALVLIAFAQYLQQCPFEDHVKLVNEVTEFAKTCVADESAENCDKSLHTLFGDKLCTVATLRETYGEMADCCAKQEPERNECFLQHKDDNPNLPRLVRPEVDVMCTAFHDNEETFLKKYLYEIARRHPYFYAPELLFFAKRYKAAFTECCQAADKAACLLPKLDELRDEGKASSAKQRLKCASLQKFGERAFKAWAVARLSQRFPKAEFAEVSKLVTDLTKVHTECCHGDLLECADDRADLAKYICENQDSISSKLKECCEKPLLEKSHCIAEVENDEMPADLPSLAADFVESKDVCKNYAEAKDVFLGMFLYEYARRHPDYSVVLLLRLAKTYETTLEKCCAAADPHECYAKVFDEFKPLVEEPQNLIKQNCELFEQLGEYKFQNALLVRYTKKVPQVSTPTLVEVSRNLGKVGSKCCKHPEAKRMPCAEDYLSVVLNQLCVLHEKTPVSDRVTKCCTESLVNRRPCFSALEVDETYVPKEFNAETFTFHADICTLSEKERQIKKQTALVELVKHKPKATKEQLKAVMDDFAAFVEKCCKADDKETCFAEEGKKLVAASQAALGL
observable: pKd
Keep in mind that pKd stands for -log10 of concentration in molar terms.

**Query** Identify pKd associated with the molecule O=C1NC(=O)C(c2ccccc2)(c2ccccc2)N1 [Phenytoin, phenytoin]
**Result** 3.88

**Query** Identify pKd associated with the molecule CCOC(=O)C(C)(C)Oc1ccc(Cl)cc1 [Clofibrate, clofibrate]
**Result** 5.77

**Query** Identify pKd associated with the molecule O=S1(=O)OC(c2ccc(O)cc2)(c2ccc(O)cc2)c2ccccc21 [Phenol Red, phenol red]
**Result** 4.43
